Assay: IV pharmacokinetics in Sprague Dawley rats
Assay type: in vivo
Details: Sprague-Dawley, rat, in vivo, iv, 2 mg/kg, normal saline, read-out: Vss
# note: boundary value 3 L/kg maps to NOT MET; Vd below it maps to MET

[
  {
    "molecule": "O=C1NCCCC12CCCCN2 (single isomer, unassigned) [AX, 1,8-diazaspiro[5.5]undecan-7-one]",
    "classAssignment": "NOT MET"
  },
  {
    "molecule": "CC(=O)N1CCCC12CC=CCNC2=O (single isomer, unassigned)",
    "classAssignment": "MET"
  },
  {
    "molecule": "O=C1NCCCC12CCCN2 (centres unmarked) [EU-2, 1,7-diazaspiro[4.5]decan-6-one]",
    "classAssignment": "MET"
  },
  {
    "molecule": "CN1CC=CCC2(CCCN2Cc2ccccc2)C1=O (single isomer, unassigned)",
    "classAssignment": "NOT MET"
  },
  {
    "molecule": "CC(C)C(=O)N1CCC2(CCCN2C(=O)C(C)C)C1=O (single isomer, unassigned)",
    "classAssignment": "MET"
  },
  {
    "molecule": "O=C1NCC=CC[C@]12CCCN2 [GA, (R)-1,7-diazaspiro[4.6]undec-9-en-6-one]",
    "classAssignment": "NOT MET"
  },
  {
    "molecule": "O=C1NCCCC[C@]12CCCN2 [AU-1, (S)-1,7-diazaspiro[4.6]undecan-6-one]",
    "classAssignment": "MET"
  },
  {
    "molecule": "O=C1NCCCCC12CCCNC2 (single isomer, unassigned) [CF, 2,8-diazaspiro[5.6]dodecan-7-one]",
    "classAssignment": "MET"
  }
]

###

Molecular target: NMDAR2B (Homo sapiens, UniProt Q13224)
Construct: expressed in transfected cells; host or cells: HEK cells (membrane extract)
Sequence (Q13224 27-1484, species assumed, other chains not shown): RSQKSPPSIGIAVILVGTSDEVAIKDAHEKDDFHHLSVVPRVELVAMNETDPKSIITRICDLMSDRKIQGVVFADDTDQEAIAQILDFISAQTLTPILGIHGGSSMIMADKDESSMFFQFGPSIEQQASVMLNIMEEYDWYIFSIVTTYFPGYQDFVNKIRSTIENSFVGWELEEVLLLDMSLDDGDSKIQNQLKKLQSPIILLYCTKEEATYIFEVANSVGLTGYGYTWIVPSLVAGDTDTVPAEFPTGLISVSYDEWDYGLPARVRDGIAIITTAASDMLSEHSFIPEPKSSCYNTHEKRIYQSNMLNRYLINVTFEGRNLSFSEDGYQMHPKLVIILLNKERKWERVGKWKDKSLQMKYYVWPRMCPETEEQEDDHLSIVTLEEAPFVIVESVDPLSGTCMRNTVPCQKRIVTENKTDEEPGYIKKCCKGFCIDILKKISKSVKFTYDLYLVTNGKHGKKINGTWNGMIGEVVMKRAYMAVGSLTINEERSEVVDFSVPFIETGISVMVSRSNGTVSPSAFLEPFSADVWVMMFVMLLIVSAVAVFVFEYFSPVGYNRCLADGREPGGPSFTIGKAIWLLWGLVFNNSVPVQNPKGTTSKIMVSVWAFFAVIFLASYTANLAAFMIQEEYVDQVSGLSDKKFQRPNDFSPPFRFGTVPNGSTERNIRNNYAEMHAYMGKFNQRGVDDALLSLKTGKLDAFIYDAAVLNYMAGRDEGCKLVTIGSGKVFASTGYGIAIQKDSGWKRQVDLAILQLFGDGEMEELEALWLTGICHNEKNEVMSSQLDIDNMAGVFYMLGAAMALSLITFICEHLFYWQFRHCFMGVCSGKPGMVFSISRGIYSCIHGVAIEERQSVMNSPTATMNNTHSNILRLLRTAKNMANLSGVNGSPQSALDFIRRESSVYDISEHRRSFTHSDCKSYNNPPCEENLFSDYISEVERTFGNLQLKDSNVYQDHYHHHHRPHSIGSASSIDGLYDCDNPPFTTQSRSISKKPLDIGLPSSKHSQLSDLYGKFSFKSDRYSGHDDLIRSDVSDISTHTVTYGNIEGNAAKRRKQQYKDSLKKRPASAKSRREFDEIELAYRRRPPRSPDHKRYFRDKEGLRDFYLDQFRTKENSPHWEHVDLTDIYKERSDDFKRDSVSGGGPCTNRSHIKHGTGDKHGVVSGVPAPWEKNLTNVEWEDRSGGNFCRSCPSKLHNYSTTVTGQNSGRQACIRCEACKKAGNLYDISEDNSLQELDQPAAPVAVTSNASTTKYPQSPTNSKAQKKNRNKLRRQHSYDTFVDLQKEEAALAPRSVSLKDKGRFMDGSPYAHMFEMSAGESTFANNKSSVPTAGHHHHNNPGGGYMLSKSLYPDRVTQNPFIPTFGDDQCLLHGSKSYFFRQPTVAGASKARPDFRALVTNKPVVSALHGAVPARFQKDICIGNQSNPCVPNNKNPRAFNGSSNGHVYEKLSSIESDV
Assay: NMDAR agonist assay, [3H]MK-801 binding, NMDAR2B expressing HEK cell membranes
Type: biochemical
Conditions: 50 μM glutamate; relative to 1 mM glycine; read-out: NMDAR2B A: % maximal [3H]MK-801 binding relative to 1 mM glycine
// values below are reported Emax
measurementType: Emax

[
  {
    "compound": "CC(C)CN1CCCC12CC=CCNC2=O (single isomer, unassigned) [GI-1]",
    "reportedValue": "< 100%"
  },
  {
    "compound": "O=C1NCC=CCC12CC(F)(F)CN2 (single isomer, unassigned) [GL-1]",
    "reportedValue": "< 100%"
  },
  {
    "compound": "O=C1NCC=CC[C@]12CCCN2 [GA, (R)-1,7-diazaspiro[4.6]undec-9-en-6-one]",
    "reportedValue": "< 100%"
  },
  {
    "compound": "CC(C)(C)OC(=O)N1CCCC12CCCNC2=O (single isomer, unassigned) [EV-1]",
    "reportedValue": "< 100%"
  },
  {
    "compound": "O=C1NCC=CCC12CCCN2Cc1ccccc1 (single isomer, unassigned) [GP-1]",
    "reportedValue": "> 100%"
  },
  {
    "compound": "CN1CC=CCC2(CCCN2Cc2ccccc2)C1=O (single isomer, unassigned) [GT-1]",
    "reportedValue": "< 100%"
  },
  {
    "compound": "NC(=O)CN1CCCC12CC=CCNC2=O (single isomer, unassigned) [GQ-1]",
    "reportedValue": "> 100%"
  },
  {
    "compound": "O=C1NCCCC12CCCN2 (stereo not drawn) [EU-1, 1,7-diazaspiro[4.5]decan-6-one]",
    "reportedValue": "< 100%"
  },
  {
    "compound": "O=C1NCC=CCC12CCCN2Cc1ccc(F)cc1 (single isomer, unassigned) [GJ-1]",
    "reportedValue": "< 100%"
  }
]

###

Test: Microsomal stability (Rat)
Assay type: in vitro ADME
Conditions: after 60 minutes
# note: boundary value 50% maps to Not met; Microsomal (Rat): percent of compound remaining below it maps to Met

[
  {
    "compound": "O=C1NCC=CCC12CC(F)(F)CN2 (single isomer, unassigned)",
    "classAssignment": "Not met"
  },
  {
    "compound": "CC(C)CN1CCCC12CC=CCNC2=O (single isomer, unassigned) [GI-2]",
    "classAssignment": "Not met"
  },
  {
    "compound": "O=C1NCC=CCC12CCCN2Cc1ccccc1 (single isomer, unassigned) [GP-1]",
    "classAssignment": "Met"
  },
  {
    "compound": "O=C1N(Cc2ccc(F)cc2)CC=CCC12CCCN2 (single isomer, unassigned)",
    "classAssignment": "Met"
  },
  {
    "compound": "CC(=O)N1CCCC12CC=CCNC2=O (single isomer, unassigned)",
    "classAssignment": "Not met"
  },
  {
    "compound": "O=C1NCCCC12CCCCN2 (single isomer, unassigned) [AX, 1,8-diazaspiro[5.5]undecan-7-one]",
    "classAssignment": "Not met"
  },
  {
    "compound": "NC(=O)CN1CCCC12CC=CCNC2=O (single isomer, unassigned) [GQ-1]",
    "classAssignment": "Not met"
  },
  {
    "compound": "O=C1N(Cc2ccccc2)CC=CCC12CCCN2 (single isomer, unassigned) [GS-2]",
    "classAssignment": "Met"
  }
]

###

Experiment: Oral pharmacokinetics in Sprague Dawley rats (plasma, brain, CSF)
Type: in vivo
Settings: Sprague-Dawley, rat, plasma, po, 10 mg/kg, per os
measurementType: AUC(0-t) (ng·h/mL)

[
  {
    "compound": "CN1CCCC12CC=CCNC2=O (single isomer, unassigned)",
    "measurementType": "AUC(0-t)",
    "reportedValue": 4430
  },
  {
    "compound": "O=C1NCCCCC12CCCCN2 (single isomer, unassigned) [AZ, 1,8-diazaspiro[5.6]dodecan-7-one]",
    "measurementType": "AUC(0-t)",
    "reportedValue": 74300
  },
  {
    "compound": "CC(C)(C)OC(=O)N1CCCC12CCCNC2=O (single isomer, unassigned)",
    "measurementType": "AUC(0-t)",
    "reportedValue": 2850
  },
  {
    "compound": "CN1CC=CCC2(CCCN2Cc2ccccc2)C1=O (single isomer, unassigned)",
    "measurementType": "AUC(0-t)",
    "reportedValue": 9.16
  }
]

###

Test: Oral pharmacokinetics in Sprague Dawley rats (plasma, brain, CSF)
Assay type: in vivo
Details: rat, per os, 10 mg/kg, CSF
// values below are reported CSF Cmax
measurementType: CSF Cmax (ng/mL)

[
  {
    "compound": "CC(C)CN1CCCC12CC=CCNC2=O (single isomer, unassigned)",
    "unitsText": "ng/mL",
    "reportedValue": 205.53
  },
  {
    "compound": "CN1CC=CCC2(CCCN2Cc2ccccc2)C1=O (single isomer, unassigned)",
    "unitsText": "ng/mL",
    "reportedValue": 0
  },
  {
    "compound": "O=C1N(Cc2ccc(F)cc2)CC=CCC12CCCN2 (single isomer, unassigned)",
    "unitsText": "ng/mL",
    "reportedValue": 322.45
  },
  {
    "compound": "CC(C)(C)OC(=O)N1CCCC12CCCNC2=O (single isomer, unassigned) [EV-1]",
    "unitsText": "ng/mL",
    "reportedValue": 1414.8
  },
  {
    "compound": "CC(C)C(=O)N1CCCC12CC=CCNC2=O (single isomer, unassigned)",
    "unitsText": "ng/mL",
    "reportedValue": 2296.73
  },
  {
    "compound": "O=C1NCCCC[C@]12CCCN2 [AU-1, (S)-1,7-diazaspiro[4.6]undecan-6-one]",
    "unitsText": "ng/mL",
    "reportedValue": 199.26
  },
  {
    "compound": "O=C1NCCCC12CCCCN2 (single isomer, unassigned) [AX, 1,8-diazaspiro[5.5]undecan-7-one]",
    "unitsText": "ng/mL",
    "reportedValue": 342.07
  },
  {
    "compound": "CN1CCCC12CC=CCNC2=O (single isomer, unassigned)",
    "unitsText": "ng/mL",
    "reportedValue": 744.03
  },
  {
    "compound": "CC(C)(C)OC(=O)N1CCCC12CCCNC2=O (single isomer, unassigned) [EV-2]",
    "unitsText": "ng/mL",
    "reportedValue": 2324.1
  },
  {
    "compound": "O=C1NCCCC12CCCCN2 (single isomer, unassigned) [AY, 1,8-diazaspiro[5.5]undecan-7-one]",
    "unitsText": "ng/mL",
    "reportedValue": 701.8
  },
  {
    "compound": "O=C1NCC=CCC12CC(F)(F)CN2 (single isomer, unassigned)",
    "unitsText": "ng/mL",
    "reportedValue": 4433.95
  },
  {
    "compound": "O=C1NCCCCC12CCCCN2 (single isomer, unassigned) [AZ, 1,8-diazaspiro[5.6]dodecan-7-one]",
    "unitsText": "ng/mL",
    "reportedValue": 5343.89
  },
  {
    "compound": "CC(C)C(=O)N1CCC2(CCCN2C(=O)C(C)C)C1=O (single isomer, unassigned)",
    "unitsText": "ng/mL",
    "reportedValue": 0
  },
  {
    "compound": "O=C1NCCCCC12CCCNC2 (single isomer, unassigned) [CF, 2,8-diazaspiro[5.6]dodecan-7-one]",
    "unitsText": "ng/mL",
    "reportedValue": 51.64
  },
  {
    "compound": "O=C1NCC=CC[C@]12CCCN2 [GA, (R)-1,7-diazaspiro[4.6]undec-9-en-6-one]",
    "unitsText": "ng/mL",
    "reportedValue": 551.3
  },
  {
    "compound": "O=C1NCCCC12CCCN2 (stereo not drawn) [EU-2, 1,7-diazaspiro[4.5]decan-6-one]",
    "unitsText": "ng/mL",
    "reportedValue": 436.7
  },
  {
    "compound": "NC(=O)CN1CCCC12CC=CCNC2=O (single isomer, unassigned)",
    "unitsText": "ng/mL",
    "reportedValue": 1400.31
  },
  {
    "compound": "CC(=O)N1CCCC12CC=CCNC2=O (single isomer, unassigned)",
    "unitsText": "ng/mL",
    "reportedValue": 2271.94
  }
]
